Every entry's value here was drawn from ChEMBL document CHEMBL3507680.

Below, each of the compounds is paired with its reported cytotoxicity at 70.5 h value.
PROTOCOL DESCRIPTION: Human HepG2 cell viability assay in 384 well format
Type: toxicity, cell-based
Design: dose 125 nL, time 70.5 hour; concentration not given beside the values
ASSAY CONTEXT: HepG2 cells, read-out: Inhibition
API: value field is a number in %; no unit string.

# annotated cases, reported cytotoxicity at 70.5 h shown
# COMPOUND, cytotoxicity at 70.5 h / %
rows = [
    ("CN(C)C(=O)CN1CCC2(CCN(S(=O)(=O)C3CC3)CC2)C1=O", -11.2),
    ("COCCNc1ccccc1CNC(=O)NCc1nc(C)c(C)s1", -7.21),
    ("COc1ccc2oc(C(C)NC(=O)NC3CCN(C)CC3)c(C)c2c1 (stereo unspecified)", -13.4),
    ("Cc1cc(CNC(=O)[C@H]2CCCCN2C(=O)OC(C)(C)C)on1", -1.11),
    ("CC(c1nc(C(C)(C)C)no1)N1CCN(Cc2ccco2)CC1 (stereo unspecified)", -15),
]

Now, please, on to the next compound.
Exam item: Bench note: what cytotoxicity at 70.5 h did Cc1nc2cc(NC(=O)Cn3ncc(N4CCCC4)cc3=O)ccc2s1 show?
Marked response: -4.89

###

PROTOCOL DESCRIPTION: Human HepG2 cell viability assay in 384 well format
Type: toxicity, cell-based
Parameters: dose 125 nL, time 70.5 hour; concentration not given beside the values
ASSAY CONTEXT: HepG2 cells, read-out: Inhibition
EXPERIMENTAL READOUT: cytotoxicity at 70.5 h (%)
API: value field is a number in %; no unit string.

# COMPOUND, READOUT VALUE
rows = [
    ("c1cnc(N2CCO[C@H]3CN(Cc4ccsc4)C[C@H]32)nc1", -14.2),
    ("Cc1nc2oc(C(=O)N3CCCC3)c(N)c2c2c1CCCC2", -16.9),
    ("CNC(=O)Cn1ccc2ccc(NC(=O)C(C)CSC)cc21 (centres undefined)", -5.03),
    ("NC(=O)c1ccc(OCCCN2C[C@H](C3CC3)[C@@H](N)C2)cc1", -5.8),
    ("Cc1cccnc1CNCC1(O)CCCN(CC2CCC2)C1=O (centres undefined)", 2.29),
]

Exam item: Bench note: what cytotoxicity at 70.5 h did CN(C)Cc1cc(CC2(NCc3ccc(C#N)cc3)COC2)no1 show?
Marked response: -6.01

Exam item: Bench note: what cytotoxicity at 70.5 h did Cc1cccc(N2CCCN=C2NC(=O)c2cccc(Cl)c2)c1 show?
Marked response: -9.98

Exam item: Bench note: what cytotoxicity at 70.5 h did COc1ccc(Cl)cc1C(=O)N1CCOC2(CNCCOC2)C1 (centres undefined) show?
Marked response: -0.31

Exam item: Bench note: what cytotoxicity at 70.5 h did CNC(=O)CCS(=O)(=O)Cc1coc(-c2ccc(F)cc2)n1 show?
Marked response: -20.2

Exam item: Bench note: what cytotoxicity at 70.5 h did CC(=O)N1CCN(Cc2cccc3c2sc2ccccc23)CC(O)C1 (centres undefined) show?
Marked response: -5.85

###

PROTOCOL DESCRIPTION: Human HepG2 cell viability assay in 384 well format
Assay type: toxicity, cell-based
Parameters: dose 125 nL, time 70.5 hour; concentration not given beside the values
ASSAY CONTEXT: HepG2 cells, read-out: Inhibition
EXPERIMENTAL READOUT: cytotoxicity at 70.5 h (%)
API: value field is a number in %; no unit string.

# annotated cases, reported cytotoxicity at 70.5 h shown
# COMPOUND, cytotoxicity at 70.5 h [%]
records = [
    ("COc1cc(CN(C)C(=O)Cc2c(C)nn(C)c2C)ccc1OC(F)F", 3.07),
    ("O=C(Nc1ccccc1)C1=CC2(CCNCC2)c2ccccc21", 3.63),
    ("Cc1cnc(NCC(C)(C)N2CCOCC2)nc1", -4.82),
    ("COc1ccc(CNCC2CNc3ccnn3C2)cn1 (configuration not stated)", -3.27),
    ("CN(C)CCn1c2c(ccc1=O)CC(NC(=O)NC1CCCC1)CC2 (configuration not stated)", -6.88),
]

Exam item: Bench note: what cytotoxicity at 70.5 h did Cc1nc(CNC(=O)N2CCN(c3ccc(Cl)cn3)CC2)sc1C show?
Marked response: -3.28

Exam item: Bench note: what cytotoxicity at 70.5 h did COCCO[C@@H]1C[C@H]2CN(C(=O)c3cnccn3)CCN2C1 show?
Marked response: -6.2

###

Below, each of the molecules is paired with its reported cytotoxicity at 70.5 h value.
PROTOCOL DESCRIPTION: Human HepG2 cell viability assay in 384 well format
Format: toxicity, cell-based
Set-up: dose 125 nL, time 70.5 hour; concentration not given beside the values
ASSAY CONTEXT: HepG2 cells, read-out: Inhibition
Reply with the number, then its unit.

# MOLECULE, cytotoxicity at 70.5 h
data = [
    ("Cc1cc(C)nc(CCNC(=O)[C@H]2CNC[C@@H](C(=O)N3CCCC3)C2)n1", "9.67%"),
    ("Cc1nc(CN2CCO[C@H]3CN(C(=O)Cc4cccs4)C[C@H]32)cs1", "-3.66%"),
    ("COc1ncccc1CN1C[C@@H]2COC[C@]2(COCC2CC2)C1", "-11.6%"),
    ("CCOc1cc(CN(C)CCCC#N)ccc1OC(F)F", "-6.87%"),
    ("CC(C)[C@@H]1CN(CCOc2ccc(Cl)cc2)C[C@H]1NS(C)(=O)=O", "-3.97%"),
    ("CCn1cnnc1CCNS(=O)(=O)N1CCCC1c1ccco1 (stereo not drawn)", "-9.13%"),
    ("CN(C)CCN1CC(C(=O)N2CCC(c3cc(=O)[nH]cn3)CC2)CC1=O (stereo not drawn)", "3.73%"),
    ("CN(C(=O)[C@H]1CSCN1C(=O)OC(C)(C)C)C1CC1", "73.6%"),
]

Exam item: Bench note: what cytotoxicity at 70.5 h did COC(=O)c1cc(NC2CCN(CC(F)(F)F)C2=O)ccc1C (stereo not drawn) show?
Marked response: -1.18%

Exam item: Bench note: what cytotoxicity at 70.5 h did CCCn1ccc2cc(NC(=O)CC3CCCO3)ccc21 (stereo not drawn) show?
Marked response: -5.13%

Exam item: Bench note: what cytotoxicity at 70.5 h did CN1C(=O)CCc2cc(NC(=O)C3CC(=O)N(CC4CC4)C3)ccc21 (stereo not drawn) show?
Marked response: 2.59%

Exam item: Bench note: what cytotoxicity at 70.5 h did Cn1ccc2c(C(=O)NCCCN3CCOCC3)cccc21 show?
Marked response: 11.5%

Exam item: Bench note: what cytotoxicity at 70.5 h did CCC1CN(CCNC(C)=O)CCN1CCOC (stereo not drawn) show?
Marked response: 2.28%

###

Below, each of the molecules is paired with its reported cytotoxicity at 70.5 h value.
PROTOCOL DESCRIPTION: Human HepG2 cell viability assay in 384 well format
Format: toxicity, cell-based
Design: dose 125 nL, time 70.5 hour; concentration not given beside the values
ASSAY CONTEXT: HepG2 cells, read-out: Inhibition
API: value field is a number in %; no unit string.

# annotated cases, reported cytotoxicity at 70.5 h shown
# MOLECULE, cytotoxicity at 70.5 h [%]
measured = [
    ("Cc1nnnn1-c1ccc(CC(=O)N2CCOCC(O)C2)cc1 (configuration not stated)", -6.4),
    ("CN(C)C(=O)COCc1nnc2n1CCN(Cc1ccsc1)C2", 0.94),
    ("CC(C)(O)c1cc(CC2(NCc3ccccc3Cl)COC2)no1", -0.604),
    ("Cc1cccc(CN2C[C@@H]3OCCN(C)[C@@H]3C2)n1", -11.9),
]

Exam item: Bench note: what cytotoxicity at 70.5 h did Fc1ccc(COCC2CCN(Cc3ccccn3)CC2)cc1 show?
Marked response: -4.18

Exam item: Bench note: what cytotoxicity at 70.5 h did COCCN1CCC(NCc2c(C(C)C)nn(C)c2N(C)C)CC1 show?
Marked response: 24.2

Exam item: Bench note: what cytotoxicity at 70.5 h did N#CCCN(CCC#N)C(=O)c1cccc(N2CCNC2=O)c1 show?
Marked response: -7.77

Exam item: Bench note: what cytotoxicity at 70.5 h did Cc1[nH]ncc1C(=O)N1CCOC(c2cccs2)C1 (configuration not stated) show?
Marked response: 25.7

Exam item: Bench note: what cytotoxicity at 70.5 h did CCC(CC)c1cc(CNC(=O)N2CCC[C@@H]2CO)on1 show?
Marked response: 15.7

Exam item: Bench note: what cytotoxicity at 70.5 h did CC(=O)N1CCC2(CCCN(S(=O)(=O)c3ccccc3)C2)C1 (configuration not stated) show?
Marked response: 20

Exam item: Bench note: what cytotoxicity at 70.5 h did Cc1ccn(CCC(=O)N2CCOC(c3nc(-c4cccs4)no3)C2)n1 (configuration not stated) show?
Marked response: -2.76
